Quick list: growth inhibition per entry.
Assay: NCI Yeast Anticancer Drug Screen. Data for the cln2 rad14 strain (AID 165);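 also: 0% = growth equal to vehicle treated cultures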
Details: S. cerevisiae cln2 rad14 strain, at 5.0 µM (retest, dose inferred, filed as 0.5), hits give high values
Procedure: Growth inhibition of yeast strains with defined genetic alterations is measured as a screen for potential anti-cancer activity. Selected strains with alterations in DNA damage repair or cell cycle control were exposed to compounds and growth inhibition was measured relative to vehicle treated controls. The strain used in this assay is cln2 rad14
The panel holds about 79,000 compounds, 15% with a hit somewhere; the sample as a whole holds those more often.
Measure name: growth inhibition (%)

compound="CN(C)CC(CN1CCCC1)C(=O)c1ccccc1 (stereo not given)" scale_unit=% reported_result=26
compound=COc1ccc(C2=NN(c3ccccc3)C[N+](c3ccc(OC)cc3)=N2)cc1 scale_unit=% reported_result=10
compound="C/C(=N/NC(N)=O)C1CC(CCC2([N+](=O)[O-])CCC(C)(O)C(/C(C)=N\\NC(N)=O)C2)([N+](=O)[O-])CCC1(C)O (stereo not given)" scale_unit=% reported_result=5
compound=O=C(O)/C=C/C(=O)c1ccccc1 scale_unit=% reported_result=-3
compound=CCOC(=O)C(=Cc1ccc(OC)cc1)C(=O)OCC scale_unit=% reported_result=1
compound="NC1=C(O)C(=O)C(c2c3ccccc3cc3ccccc23)O1 (stereo not given)" scale_unit=% reported_result=7
compound=CC(C)N(CCOc1ccc(/C=C/c2ccccc2)cc1)C(C)C scale_unit=% reported_result=6
compound=CCC[n+]1ccc(/C=N\NC(N)=S)c2ccccc21 scale_unit=% reported_result=9
compound=Cc1cc(C)nc(NS(=O)(=O)c2ccc(Nc3nc(-c4cccc([N+](=O)[O-])c4)cs3)cc2)n1 scale_unit=% reported_result=-26
compound=CCC1(CC)COC(C)(C(=O)O)OC1 scale_unit=% reported_result=-51
compound="CC1=NN(c2ccccc2)C(=O)C12[C@H](c1ccccc1)C2(C#N)C#N (stereo not given in full)" scale_unit=% reported_result=25
compound=N#CCc1ccccc1-c1cccc2ccccc12 scale_unit=% reported_result=3
compound="C=C1C(=O)OC2C1CCC(=C)C1CC(O)C(=C)C12 (stereo not given)" scale_unit=% reported_result=10
compound=COc1ccc2nc3cc(Cl)ccc3c(Nc3ccc(O)c(CN4CCN(C)CC4)c3)c2c1 scale_unit=% reported_result=21
compound=O=C(/C=C/c1cccc([N+](=O)[O-])c1)CCl scale_unit=% reported_result=-22
compound=COc1cc[c]([Sn]([O][Sn]([Cl])([c]2ccc(OC)cc2)[c]2ccc(OC)cc2)[c]2ccc(OC)cc2)cc1 scale_unit=% reported_result=28
compound=CCCCCCCCCCCCCCCCCC[N+]1(CC)CCCCC1 scale_unit=% reported_result=99
compound=CCCCN(CCCC)CCC(=O)c1ccc2c(ccc3ccccc32)c1 scale_unit=% reported_result=21
compound=CCCCCCCCCCSC(=NCC)NCC scale_unit=% reported_result=-6
compound="OC1c2cc(Cl)cc(Cl)c2OC2(N3CCCC3)CCCCC12 (stereo not given)" scale_unit=% reported_result=34
compound="O=C(/C=C/c1ccccc1)CCN1CCC2CCC(C2)C1 (stereo not given)" scale_unit=% reported_result=11
compound="CC1CCC2(C)C(CC=C(C=O)C2(O)C=O)C12CO2 (stereo not given)" scale_unit=% reported_result=99
compound=O=C(c1cccnc1)N(C1CCCCC1)C1CCCCC1 scale_unit=% reported_result=1
compound=Cc1cc(O)ccc1N=Nc1ccccc1 scale_unit=% reported_result=-8
compound=O=C1c2ccccc2C(=O)c2c1ccc(O)c2O scale_unit=% reported_result=23
compound=Cc1noc(NS(=O)(=O)c2ccc(NCc3c4ccccc4nc4cc(Cl)ccc34)cc2)c1C scale_unit=% reported_result=1
compound=COc1ccc2c(c1)nc1ccc(Cl)cc1[n+]2C scale_unit=% reported_result=-7
compound="CCCCCCCCCCCC[N+](C)(CCS(=O)(=O)[O-])Cc1ccccc1 (stereo not given)" scale_unit=% reported_result=2
compound=c1ccc(CCN(Cc2nc3ccccc3[nH]2)Cc2nc3ccccc3[nH]2)cc1 scale_unit=% reported_result=-12
compound=CSC(=S)N/N=C(/C)CC(C)C scale_unit=% reported_result=-5
compound=CCCCSc1nc2c([nH]1)c(=S)n(C)c(=S)n2C scale_unit=% reported_result=-5
compound=CC(=O)Oc1c(-c2ccccc2)cc([N+](=O)[O-])cc1[N+](=O)[O-] scale_unit=% reported_result=17
compound=CC(C)(C[NH-])C[NH-].[Cl][Pt+2]([Cl])([Cl])[Cl] scale_unit=% reported_result=79
compound=CCOc1ccc(N=Nc2ccccc2)cc1 scale_unit=% reported_result=0
compound="CC1CCC2(CC1)NC1=C(CC(C)CC1)C1=C2CC(C)CC1 (stereo not given)" scale_unit=% reported_result=14
